Assign growth to each entry below.
System: HS 578T breast
Assay: NCI-60 one-dose screen, 48 h (100 = growth as untreated, 0 = no growth, -100 = all killed)
Conditions: 10 µM unless noted
The panel holds about 83,000 compounds, 20% with a hit somewhere; the sample as a whole holds those more often.
Provide only the numeric value, understood in %.

-- ask Entry CC(=O)N1N=C(c2ccc(Nc3nc(Nc4ccc(F)cc4)nc(Nc4ccc(F)cc4)n3)cc2)CC1c1ccc(N(C)C)cc1 (stereo not given) : reported growth = ?
-- reply 62.9

-- ask Now consider `O=c1oc2ccccc2cc1-c1nn(-c2ccccc2)cc1-c1nn[nH]n1` .
-- reply 105

-- ask Please give the result for `Nc1c(C(=O)Nc2cccc3ncccc23)sc2nc3c(cc12)CN(Cc1ccccc1)CC3` too.
-- reply 76.9

-- ask Further, for `CCN(CC)CCOc1ccc(C(=O)/C=C\c2ccc(Cl)cc2Cl)cc1` ?
-- reply 66.2

-- ask And what about the compound `CSc1nc2ccc(C)cc2cc1/C=C1/C=C(c2ccccc2)NC1=O` ?
-- reply 28.9

###

So I've got a bunch of molecules here, and I need their growth values.
Test system: CCRF-CEM leukemia
Test: NCI-60 one-dose screen, 48 h (100 = growth as untreated, 0 = no growth, -100 = all killed)
Details: 10 µM unless noted
This is part of a sample that, as a whole, favours compounds with a hit. Of some 83,000 tested, about 20% had one in any assay.
Report only the number, with the unit % understood.

-- ask Form: Entry = `O=c1cc(CP(=O)(O)O)c2cc(O)c(-c3ccccc3)cc2o1` | System = CCRF-CEM leukemia | growth = ____
-- reply 93.6

-- ask Same question for `CCOC(=O)NC(=S)n1oc(=O)c2ccccc21` please.
-- reply 101

-- ask Then this molecule: `COC12C=C/C(=C(/C(=O)OCCSc3ccnn3C)C(=O)CCCCCCCCC3(OC)C=C/C(=C(/C(=O)OCCSc4ccnn4C)C(=O)CCCCCCCC1)O3)O2`
-- reply 11.1

-- ask What do you have for `COc1cc(/C=C/c2cc(/C=C/c3ccc(O)c(OC)c3)n(C(=O)Nc3ccc(Cl)cc3)n2)ccc1O` ?
-- reply 4.45

-- ask Then this molecule: `COc1ccc(Nc2ncc(C#N)c(NCCCNC(=O)C3CCC3)n2)cc1`
-- reply 45.5

-- ask Another molecule to check: CN1CC(c2ccc(Br)cc2)C(C(=O)c2ccc(Br)cc2)C12C(=O)Nc1ccccc12 (centres undefined)
-- reply 80.2

-- ask Ok, now `COc1cc(O)c2c(=O)c3c(CC=C(C)C)cc(OC)c(O)c3oc2c1`
-- reply 16.5

-- ask Entry to check: CCOC(=O)C1=C(CCl)N(C)C(=O)NC1c1ccc2c(c1)OCO2 (centres undefined)
-- reply 12

-- ask Request: `COc1cc(/C=C2\C(=O)N(CCCOc3cc(O)c4c(=O)cc(-c5ccccc5)oc4c3)c3ccccc32)cc(OC)c1O`
-- reply 70.2

###

Test system: SK-MEL-5 melanoma
Test: NCI-60 one-dose screen, 48 h (100 = growth as untreated, 0 = no growth, -100 = all killed)
Conditions: 10 µM unless noted
Protocol: Growth inhibition of the SK-MEL-5 human tumor cell line is measured as a screen for anti-cancer activity. Cells are grown in 96 well plates and exposed to the test compound for 48 hours. Compounds are tested at a single concentration, which is 10^-5 M for most compounds. The reported endpoint is percent growth (GI% or GIPRCNT), where numbers from 0 - 100% represent growth inhibition, and numbers from -100% - 0 represent cell death. For example, a value of 40 represents 60% growth inhibition. […]
Compounds without any hit were thinned out: in the full panel of roughly 83,000, 20% have a hit. Active and inactive are the calls of the source. Rule for the calls: active = growth percent below 10; inactive = the rest.
measured.attribute: growth

-- ask So what's the measured growth for this one? `CC1=C(Cl)C(=O)c2cc(C)ccc2C1=O`
-- reply 101% (inactive)

-- ask Try this molecule too: `O=C1Nc2ccc(Cl)cc2/C1=C/c1ccc[nH]1`
-- reply 77.5% (inactive)

-- ask Again, but for CCOC(=O)CC1CSC(N/N=C/c2ccc(F)c(Br)c2)=N1 (configuration not stated)
-- reply 101% (inactive)

-- ask # iterate: `CN(C)/C(N)=N/N=C(\c1ccccc1)c1ccccn1`
-- reply 95.5% (inactive)

-- ask Also `COc1cc(O)c2c(=O)c3c(CC=C(C)C)cc(OC)c(O)c3oc2c1` ?
-- reply 52.9% (inactive)

-- ask Same thing, different molecule: `CCSc1ccnc(N)n1`
-- reply 107% (inactive)

-- ask Request: `Fc1cccc(-c2nc(-c3c[nH]c4ncccc34)cs2)c1`
-- reply 50.6% [100 µM] (inactive)
